biological target: Tyrosine-protein kinase SYK (Homo sapiens); experiment: Inhibition of recombinant N-terminus His6 tagged Syk (343 to 635) autophosphorylation expressed in insect Sf9 cells using [33P]ATP by scintillation counting
# IC50 values compiled below
Field: numeric (nM). Do not append units.

Sample answers from the record:
{"columns": ["record_smiles", "study_system", "IC50 [nM]"],
 "data": [
  ["CCC(O)(CC)c1ccc2cc(-c3n[nH]c4ccsc34)[nH]c2c1", "Tyrosine-protein kinase SYK (Homo sapiens)", 186],
  ["CCC(O)(CC)c1cc(OCCN2CCOCC2)c2cc(-c3n[nH]c4ccsc34)[nH]c2c1", "Tyrosine-protein kinase SYK (Homo sapiens)", 287],
  ["CCC(O)(CC)c1ccc2c(-c3ccc(OC)cc3)c(-c3n[nH]c4ccsc34)[nH]c2c1", "Tyrosine-protein kinase SYK (Homo sapiens)", 939]
]}

Now consider a different compound.
The compound listed as CCC(O)(CC)c1ccc2cc(-c3n[nH]c4cc(-c5ccccc5)sc34)[nH]c2c1 shows IC50 equal to 2470
